Attribution: patent US8618299B2

Target: human MCH-1 receptor (Homo sapiens (Human))
Sequence (Q99705 whole entry): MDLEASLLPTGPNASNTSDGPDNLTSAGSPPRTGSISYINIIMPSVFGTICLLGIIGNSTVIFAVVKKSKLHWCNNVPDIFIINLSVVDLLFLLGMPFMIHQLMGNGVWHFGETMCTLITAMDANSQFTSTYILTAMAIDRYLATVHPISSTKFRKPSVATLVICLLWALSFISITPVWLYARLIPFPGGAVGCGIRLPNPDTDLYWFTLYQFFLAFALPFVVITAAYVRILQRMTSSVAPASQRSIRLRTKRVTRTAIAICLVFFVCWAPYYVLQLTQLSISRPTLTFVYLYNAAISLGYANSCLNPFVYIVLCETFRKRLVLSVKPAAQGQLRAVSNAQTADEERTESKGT
Assay: Binding assay for human melanin-concentrating hormone (MCH1) receptor
Conditions: membranes from CHO-K1 cells expressing human MCH1 receptor; 1.4 nM [3H]-labeled radioligand, 60 min at 25° C., pH 7.4; Ki from Cheng Prusoff equation
Counter-ions that a name gives are not always drawn.
Entries and their measured pKi follow.
Scale: pKi equals -log10([C]), with [C] in mol/L.

Some molecules with known pKi results, for comparison:
[
  {
    "Molecule": "Cn1c2c(c3ccc(-n4ccc(OCc5ccccc5)cc4=O)cc31)CCN1CCCCCC21 (centres unmarked) [Example 10, Hydrochloride]",
    "Measured Value": 7.33
  },
  {
    "Molecule": "Cl.O=c1cc(OCc2ccc(F)cc2F)ccn1-c1ccc2c3c([nH]c2c1)CCN1CCCC31 (centres unmarked) [Example 28, Hydrochloride]",
    "Measured Value": 7.92
  },
  {
    "Molecule": "Cl.O=c1cc(-c2ccc(C(F)(F)F)nc2)ccn1-c1ccc2c3c([nH]c2c1)CCN1CCCC31 (centres unmarked) [Example 27, Hydrochloride]",
    "Measured Value": 7.47
  },
  {
    "Molecule": "Cn1c2c(c3ccc(-n4ccc(OCc5ccc(F)cn5)cc4=O)cc31)CCN1CCCC21 (centres unmarked) [Example 43, Dihydrochloride]",
    "Measured Value": 7.59
  },
  {
    "Molecule": "Cl.Cn1c2c(c3ccc(-n4ccc(OCc5ccccc5)cc4=O)cc31)C1CCCCN1CC2 (centres unmarked) [Example 22, Hydrochloride]",
    "Measured Value": 7.68
  }
]

get_value(item= Cl.Cn1c2c(c3ccc(-n4ccc(-c5ccc(C(F)(F)F)cc5)cc4=O)nc31)CN1CCCC1C2 (centres unmarked) [Example 52, Hydrochloride] , readout=pKi) returns 7.77

get_value(item= Cl.Cn1c2c(c3ccc(-n4ccc(OCc5ccc(F)cc5F)cc4=O)nc31)CN1CCCC1C2 (centres unmarked) [Example 55, Hydrochloride] , readout=pKi) returns 7.51

get_value(item= Cl.O=c1cc(-c2ccc(C(F)(F)F)nc2)ccn1-c1ccc2c3c([nH]c2c1)CC1CCCN1C3 (centres unmarked) [Example 41, Hydrochloride] , readout=pKi) returns 7.85

get_value(item= Cc1ccc(COc2ccn(-c3ccc4c5c(n(C)c4c3)CC3CCCN3C5)c(=O)c2)cn1 (centres unmarked) [Example 31, Hydrochloride] , readout=pKi) returns 7.66
